This collection of values is drawn from paper PMC9013686.

assay.target: UniProt P20813
Sequence (P20813 1-491): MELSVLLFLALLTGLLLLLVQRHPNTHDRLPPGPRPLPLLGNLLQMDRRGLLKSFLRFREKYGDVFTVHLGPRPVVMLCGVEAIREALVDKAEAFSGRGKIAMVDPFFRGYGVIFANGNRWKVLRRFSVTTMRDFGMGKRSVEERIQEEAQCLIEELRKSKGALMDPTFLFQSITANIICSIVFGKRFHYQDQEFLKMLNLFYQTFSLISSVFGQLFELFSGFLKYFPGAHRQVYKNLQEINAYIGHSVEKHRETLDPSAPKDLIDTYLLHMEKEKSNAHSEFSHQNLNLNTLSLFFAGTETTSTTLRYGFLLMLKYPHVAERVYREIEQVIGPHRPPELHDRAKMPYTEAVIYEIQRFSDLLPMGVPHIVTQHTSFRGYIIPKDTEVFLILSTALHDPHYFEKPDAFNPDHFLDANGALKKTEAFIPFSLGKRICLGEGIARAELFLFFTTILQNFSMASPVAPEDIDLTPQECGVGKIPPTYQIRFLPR
experiment.description: Supersome CYP2B6 kinetic incubations
Type: in vitro ADME
Design: purchased Corning (Amsterdam, The Netherlands); host or cells: baculovirus-transfected insect cells
condition.context: human, recombinant CYP2B6 Supersomes, pH 7.4, Km(app), Pathway 2 (detoxification of CPF to TCPy); Supersome CYP2B6
property.measured: Km (µM)
Give the value in µM but do not write µM after it.

Task item: Endpoint output: Km of CCOP(=S)(OCC)Oc1nc(Cl)c(Cl)cc1Cl . Value?
Reply: 1.28
